Values were extracted from PubChem BioAssay AID1671190.

biological target: Polyunsaturated fatty acid lipoxygenase ALOX12 (Homo sapiens); assay: Primary qHTS assay for inhibitors of human arachidonate 12S-lipoxygenase (ALOX12): Round 2; details: purified 12hLO, xylenol orange hydroperoxide absorbance; series mostly up to 108 µM
Hit rate of the full screen: of about 580,000 compounds, about 6,100 (1.1%) were called active. Not shown: some 15% with an inconclusive outcome. Calls come from the whole dose curve; as a rule, active = well fitted inhibition curve with a large enough effect; inconclusive = small, poorly fitted or top-dose-only effect, or another doubt; inactive = no such curve, though single readings can be large or run the other way. The sample holds actives, similar compounds and a random draw of the others, so the mix is not that of the screen.
Outcomes: active, inactive

INSERT INTO measurements (compound, label_class) VALUES
  ('Cc1ccc(-n2c(C3CCN(C(=O)c4ccoc4)CC3)n[nH]c2=O)cc1', 'inactive'),
  ('CCN(CC)C(=O)C1=C(C)N(Cc2ccc(F)cc2)C(=O)C(CC(=O)NC2CCCC2)C1 (stereo not drawn)', 'inactive'),
  ('CC(C)CCNc1nc(-c2ccc(S(=O)(=O)N3CCOCC3)cc2)cs1', 'inactive'),
  ('CCCCc1cc(C[C@H]2CNCC[C@H]2CC(=O)N(CC)CC)no1', 'inactive'),
  ('CCOc1ccc(NC(=O)Nc2ccc(CN3CCOCC3)cc2)cc1', 'inactive'),
  ('CN(C)c1ccc(C=O)s1', 'inactive'),
  ('COC(=O)C1=C(C)N(Cc2ccccc2C(F)(F)F)C(=NCc2ccc(OC)cc2)NC1c1cccc(C(F)(F)F)c1 (stereo not drawn)', 'inactive'),
  ('CC(=O)N1CCN(C(C(=O)O)c2cn(CCC(=O)O)c3cc(Br)ccc23)CC1 (stereo not drawn)', 'inactive'),
  ('CO[C@@H]1COCC[C@H]1NC(=O)CCCc1nc(-c2ccccc2C)no1', 'inactive'),
  ('Cc1ccc(C(=O)N2CCC(c3n[nH]c(=O)n3-c3ccccc3)CC2)cc1F', 'active'),
  ('COC(=O)C1=C(C)N(C)C(C)=C(C(=O)OC)C1c1cccc(Br)c1', 'inactive'),
  ('CC(C)C(=O)Nc1cc(Cl)ccc1Cl', 'inactive'),
  ('Cc1ccc(-c2cc(N3CCCN(C(=O)COc4ccccc4)CC3)n[nH]2)cc1C', 'inactive'),
  ('COc1ccc2cc(CNC(=O)c3nccnc3N)ccc2c1', 'inactive'),
  ('O=C(CN1CCN(Cc2ccc(Cl)cc2)C1=O)NCc1ccc(F)cc1', 'inactive'),
  ('CC(=O)C1=C(C)N(Cc2ccc(Cl)cc2)C(=S)NC1c1ccc(F)cc1 (stereo not drawn)', 'active'),
  ('CC(C)=CCc1ccc(O)c(=O)cc1C(C)C', 'active'),
  ('CC(C)C(=O)Nc1ccc(-c2nc3ccccc3o2)cc1', 'inactive'),
  ('COc1ccc(-c2nc(CSCC(=O)N(C)c3ccccc3)co2)cc1', 'inactive'),
  ('COC(=O)C1=C(C)N(Cc2ccc(F)cc2)C(=S)NC1c1cccc(Cl)c1 (stereo not drawn)', 'active'),
  ('COc1ccc(C2CC(=O)c3cnc4c(c3C2)c(=O)[nH]c(=O)n4CCC(C)C)cc1 (stereo not drawn)', 'inactive'),
  ('Cc1oc(C)c2c(=O)cc(-c3ccc4c(c3)OCO4)cc(OC(=O)c3ccc(Cl)cc3)c12', 'inactive'),
  ('CS(=O)(=O)c1ccc(-c2csc(NC3CCCCC3)n2)cc1', 'inactive'),
  ('COc1ccccc1CCNS(=O)(=O)c1ccc(N2C(=O)C(C)(C)CS2(=O)=O)cc1', 'inactive'),
  ('CCN1CN(Cc2ccccc2)CNC1=S', 'inactive'),
  ('Cc1ccc(NC(=O)CN2C(=O)C(C)(C)c3cc(S(=O)(=O)N4CCCCC4)ccc32)cc1F', 'inactive'),
  ('C/C(=N\NC(=O)c1cc2c(s1)CCC(C)C2)c1cccnc1 (stereo not drawn)', 'active'),
  ('COc1cc(Nc2nc3ccccc3nc2NS(=O)(=O)c2ccc(C)cc2)cc(OC)c1', 'inactive'),
  ('CC(C)(C)c1ccc2c(c1)OCCOCCOCCOc1ccc(C(C)(C)C)cc1OCCOCCOCCO2', 'inactive'),
  ('COC(=O)C1=C(C)N(Cc2ccccc2C(F)(F)F)C(=NCC2CC2)NC1c1cccc(Cl)c1 (stereo not drawn)', 'inactive'),
  ('COc1ccc(OC)c(/C=C/C(=O)Oc2ccccc2Cl)c1', 'inactive'),
  ('COc1ccccc1C(=O)N1CCc2c(nc3cc(-c4ccccc4Cl)[nH]n3c2=O)C1', 'inactive'),
  ('O=C(CSc1nc(-c2ccc(F)cc2)cs1)NC1CCCCC1', 'inactive'),
  ('Cc1cc(C(C)(C)C)ccc1OC(=O)c1ccc(C#N)cc1', 'inactive'),
  ('CC(=O)C1=C(C)N(Cc2ccccc2)C(=S)NC1c1cccc(Br)c1 (stereo not drawn)', 'active'),
  ('O=C([C@@H]1C[C@H](F)CN1C(=O)Nc1cc(F)cc(F)c1)N1CCCCC1', 'inactive'),
  ('CC(Sc1ccccn1)C(=O)Nc1cccc(Cl)c1 (stereo not drawn)', 'inactive'),
  ('COc1ccc(-c2cc(N3CCN(C(=O)Cc4cccc(OC)c4)CC3)n[nH]2)cc1', 'inactive'),
  ('Cc1c(C(=O)N2CCOC(C)C2)cnn1-c1ccc(F)cc1 (stereo not drawn)', 'inactive'),
  ('CCOC(=O)c1nc2ccccc2nc1NCc1ccc(C)cc1', 'inactive'),
  ('C/C(=N\NC(N)=S)c1cccnc1', 'inactive'),
  ('CCn1cc(CN2CCC(N3CC(OCC4CC4)C34CCCCC4)CC2)cn1 (stereo not drawn)', 'inactive'),
  ('CN(Cc1ccccc1)C(=O)C[C@@H]1CCNC[C@@H]1Cc1cc(-c2ccc(C(C)(C)C)cc2)on1', 'active');
